Listed here are molecules together with their documented log10 of IC50.
# Assayed system: HsEg5 (Homo sapiens, UniProt P52732)
# Sequence (P52732 18-359 limits assumed): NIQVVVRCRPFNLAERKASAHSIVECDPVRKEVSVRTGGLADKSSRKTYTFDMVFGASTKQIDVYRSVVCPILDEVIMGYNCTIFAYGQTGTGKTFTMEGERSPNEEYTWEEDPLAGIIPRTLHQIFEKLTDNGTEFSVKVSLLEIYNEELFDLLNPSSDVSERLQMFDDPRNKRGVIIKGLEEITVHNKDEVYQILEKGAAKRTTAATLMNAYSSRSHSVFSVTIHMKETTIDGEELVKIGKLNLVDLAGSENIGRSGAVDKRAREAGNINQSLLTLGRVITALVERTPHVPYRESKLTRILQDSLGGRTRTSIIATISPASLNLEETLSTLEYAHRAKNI
# Assay summary: Fluorescence detection of HsEg5 ATPase activity (ADP Quest, automated)
# Type: biochemical
Experimental endpoint: log10 of IC50 (log10 of the value in nM)

In [3]: df
Out[3]:
                                   molecule  numeric_result
0  CC[C@H](c1nc2cc(Cl)ccc2c(=O)n1Nc1ccccc1)N(CCCN)S(=O)(=O)c1cccc(F)c1 [Compound 31]            3.16
1  CCC(c1nc2cc(Cl)ccc2c(=O)n1Nc1ccccc1)N(CCCN)C(=O)c1ccc(F)c(C)c1 (stereo not shown) [Compound 18]            3.10
2  CCC(c1nc2cc(Cl)ccc2c(=O)n1Nc1ccccc1)N(CCCN)C(=O)c1ccc(F)c(F)c1F (stereo not shown) [Compound 10]            2.78
3  CCC(c1nc2ccc(C)cc2c(=O)n1Nc1ccccc1)N(CCCN)C(=O)c1ccc(C)cc1 (stereo not shown) [Compound 28]            3.20
4  CCC(c1nc2cc(Cl)ccc2c(=O)n1Oc1ccccc1)N(CCCN)C(=O)c1ccc(C)cc1 (stereo not shown) [Compound 29]            3.34
5  C#CCC(c1nc2cc(Cl)ccc2c(=O)n1Nc1ccccc1)N(CCCN)C(=O)c1cccc(Cl)c1F (stereo not shown) [Compound 57]            1.70
6  CCC(c1nc2cc(Cl)ccc2c(=O)n1Nc1ccccc1)N(CCCN)C(=O)c1ccc(F)c(Cl)c1 (stereo not shown) [Compound 13]            2.87

----------
# Assayed system: HsEg5 (Homo sapiens)
# Assay summary: Luminescent detection of HsEg5 ATPase activity (Kinase-Glo Plus)
# Format: biochemical
# Description: Purified HsEg5 motor fragment was activated by mixture with preformed MT polymer (Cytoskeleton, Denver, Colo.) at room temperature for 20 minutes. MT activated ATPase activity was measured using Kinase-Glo® Plus Luminescent Kinase Assay (Promega, Madison, Wis.). […] Eg5 IC50 data was generated using both fluorescence and Luminescence detection assays as described above. […]
pIC50: −log10 of the molar value.
Label rule met for high-side pIC50 (at or above 7) and rule not met for low-side pIC50 (below it).

>>> print(df.to_string())
                                   compound        assayed_system  classification
0  C#CC[C@H](c1nc2cc(Cl)ccc2c(=O)n1Nc1ccccc1)N(CCCN)C(=O)c1ccc(OC)c(F)c1F [Compound 78]  HsEg5 (Homo sapiens)        rule met
1  CC#CCC(c1nc2cc(Cl)ccc2c(=O)n1Nc1ccccc1)N(CCCN)C(=O)c1cccc(Cl)c1F (stereo not shown) [Compound 74]  HsEg5 (Homo sapiens)    rule not met
2  C#CC[C@H](c1nc2cc(Cl)ccc2c(=O)n1Nc1ccccc1)N(CCCN)C(=O)c1cc(F)c(F)c(F)c1F [Compound 72]  HsEg5 (Homo sapiens)        rule met
3  C#CC[C@H](c1nc2cc(Cl)ccc2c(=O)n1Nc1ccccc1)N(CCCN)C(=O)c1cccc(F)c1F [Compound 82]  HsEg5 (Homo sapiens)        rule met

----------
# Tested on: A549
# Assay summary: MTS cell viability assay
# Assay type: cell-based
# Condition notes: Homo sapiens, A549, 72 h, A549 non small cell lung, 72 hours; read-out: MTS NCI A549 GI50
Experimental endpoint: GI50

                                    compound  experimental_endpoint   result
 0  CCC(c1nc2cc(Cl)ccc2c(=O)n1Nc1ccccc1)N(CCCN)C(=O)c1ccc(F)c(C)c1 (stereo not drawn)                   GI50  3.92 µM
 1  CCC(c1nc2cc(Cl)ccc2c(=O)n1Nc1ccccc1)N(CCCN)C(=O)c1ccc(F)c(F)c1 (stereo not drawn)                   GI50  3.57 µM
 2  CCC(c1nc2cc(Cl)ccc2c(=O)n1Nc1ccccc1)N(CCCN)C(=O)c1ccc(C)cc1 (stereo not drawn)                   GI50   2.3 µM
 3  CCC(c1nc2cc(Cl)ccc2c(=O)n1Nc1ccccc1)N(CCCN)C(=O)c1ccc(F)c(F)c1F (stereo not drawn)                   GI50  2.36 µM
 4  CC[C@H](c1nc2cc(Cl)ccc2c(=O)n1Nc1ccccc1)N(CCCN)Cc1ccc(C)cc1                   GI50  3.86 µM
 5  CC[C@H](c1nc2cc(Cl)ccc2c(=O)n1Nc1ccccc1)N(CCCN)Cc1ccccc1                   GI50  6.91 µM
 6  CCC(c1nc2cc(Cl)ccc2c(=O)n1Nc1ccccc1)N(CCCN)C(=O)c1ccc(-n2cccn2)cc1 (stereo not drawn)                   GI50  2.49 µM
 7  C#CC[C@H](c1nc2cc(Cl)ccc2c(=O)n1Nc1ccccc1)N(CCCN)S(=O)(=O)c1ccc(C)cc1                   GI50   7.1 µM
 8  CC[C@H](c1nc2cc(Cl)ccc2c(=O)n1Nc1ccccc1)N(CCCN)Cc1ccc(F)c(C)c1                   GI50   3.9 µM
 9  C#CC[C@H](c1nc2cc(Cl)ccc2c(=O)n1Nc1ccccc1)N(CCCN)Cc1ccc(C)cc1                   GI50  2.35 µM
10  CCC(c1nc2cc(Cl)ccc2c(=O)n1Oc1ccccc1)N(CCCN)C(=O)c1ccc(C)cc1 (stereo not drawn)                   GI50  3.31 µM
11  NCCCN(C(=O)c1ccc(Cl)c(Cl)c1)C(Cc1ccc(O)cc1)c1nc2cc(Cl)ccc2c(=O)n1Nc1ccccc1 (stereo not drawn)                   GI50  12.2 µM
12  CCC(c1nc2cc(Cl)ccc2c(=O)n1Nc1ccccc1)N(CCCN)C(=O)c1ccc(F)cc1 (stereo not drawn)                   GI50  4.75 µM
13  CCC(c1nc2cc(Cl)ccc2c(=O)n1Nc1ccccc1)N(CCCN)C(=O)c1ccc(I)cc1 (stereo not drawn)                   GI50  3.08 µM
14  NCCCN(C(=O)c1ccc(F)c(F)c1F)C(Cc1ccc(O)cc1)c1nc2cc(Cl)ccc2c(=O)n1Nc1ccccc1 (stereo not drawn)                   GI50  33.7 µM
